- Tested on: SW480
- ASSAY_OVERVIEW: Cell cycle analysis (G2/M arrest, PI staining, flow cytometry), SW480
- Assay type: cell-based, human
- CONDITION_DETAILS: Homo sapiens, SW480, read-out: EC50 (G2/M arrest)
pEC50: −log10 of the molar value.

SMILES_STR	pEC50
COc1ccc(CNc2nc(NCc3ccc(CN)cc3)nc(NN3CC(=O)NC3=O)n2)cc1	7.01

---

- ASSAY_OVERVIEW: HepG2 cytotoxic assay
- Assay type: cell-based
- CONDITION_DETAILS: human; HepG2 cells, cell viability after 48 h
MEASUREMENT_TYPE: IC50 at 48 h

COMPOUND	OBSERVED_VALUE
COc1ccc(CNc2nc(NCc3ccc(CN)cc3)nc(NN3CC(=O)NC3=O)n2)cc1 [WEHI-7326]	> 40 µM
